# system: T1, Human glypican-3, recombinant, construct not stated (human, UniProt P51654 25-559, limits assumed, biotin in the positional scanning (site not stated))
# T1 construct: also called recombinant GPC3; human GPC3
# T1 sequence (P51654 25-559 limits assumed): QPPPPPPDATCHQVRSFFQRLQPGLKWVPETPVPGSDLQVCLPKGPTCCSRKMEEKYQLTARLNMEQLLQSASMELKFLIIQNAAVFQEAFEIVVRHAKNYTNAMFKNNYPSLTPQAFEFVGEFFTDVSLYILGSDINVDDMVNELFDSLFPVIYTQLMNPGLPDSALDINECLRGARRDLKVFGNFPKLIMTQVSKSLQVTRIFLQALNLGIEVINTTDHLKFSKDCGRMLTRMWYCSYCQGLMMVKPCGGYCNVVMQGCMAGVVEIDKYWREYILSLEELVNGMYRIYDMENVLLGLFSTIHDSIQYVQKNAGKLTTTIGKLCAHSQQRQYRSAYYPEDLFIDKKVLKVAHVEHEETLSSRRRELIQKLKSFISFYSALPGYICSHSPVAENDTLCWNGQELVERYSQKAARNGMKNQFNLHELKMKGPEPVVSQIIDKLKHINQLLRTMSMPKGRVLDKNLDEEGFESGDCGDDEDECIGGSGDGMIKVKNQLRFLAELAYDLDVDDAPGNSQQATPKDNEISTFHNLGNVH
# experiment_notes: ELISA, recombinant GPC3
observed_property: ELISA OD (OD)
Numbers only, in OD.

Below: 2 binders and their reported ELISA OD.
| binder | unit_annotation | ELISA OD |
| --- | --- | --- |
| ADX_4578_B06 (designed binder) MGVSDVPRDLEVVAATPTSLLISWFPDRYVYYITYGETGGNSPVQEFTVEGHKQTAYISGLKPGVDYTITVYAIYYYPDDFQGYPQPISINYRTEGSGS | OD | 0.17 |
| ADX_5274_E01 (designed binder) MGVSDVPRDLEVVAATPTSLLISWSGDYHPHRYYRITYGETGGNSPVQEFTVPGEHETATISGLKPGVDYTITVYAVTYDGEKADKYPPISINYRTEIDKPSQ | OD | 2.37 |

Alright, here's another binder for you.
Please report the recorded ELISA OD for ADX_4578_F03 (designed binder) MGVSDVPRDLEVVAATPTSLLISWHPPHPNIVSYHIYYGETGGNSPVQEFTVEGSKSTAKISGLKPGVDYTITVYAVAPEIEKYYQIWINYRTEGSGS .
0.6

Where do these numbers come from? They come from patent US20230312686A1.
